system: CDS-ZH002 direct (CIC-DUX4 sarcoma cells right after isolation); assay: differential drug sensitivity score (dDSS) relative to sarcoma reference cohort mean DSS (DSS units (0-100 scale difference)); higher = more selective sensitivity than reference sarcomas; conditions: exposure time: 72 h; concentration range: 10-10000 nM
Reported endpoint: differential drug sensitivity score
Quick one: just the number, no unit, thanks!

Guide cases for differential drug sensitivity score, answers given:
# Molecule, Test target, differential drug sensitivity score
measured = [
    ("O=C(O)C1(C(=O)O)CCC1.[NH2-].[NH2-].[Pt+2]", "CDS-ZH002 direct", -1.2),
    ("CS(=O)(=O)OCCCCOS(C)(=O)=O", "CDS-ZH002 direct", -1.2),
    ("COc1cc(N2CCC(N3CCN(C)CC3)CC2)ccc1Nc1ncc(Cl)c(Nc2ccccc2P(C)(C)=O)n1", "CDS-ZH002 direct", -0.2),
]

get_value(item= CCC[C@H](NC(=O)/C(C#N)=C/c1cccc(Br)n1)c1ccccc1 [Degrasyn] , readout=differential drug sensitivity score) returns -1.4

* * *

system: CDS-ZH002 direct; assay: differential drug sensitivity score (dDSS) relative to sarcoma reference cohort mean DSS (DSS units (0-100 scale difference)); higher = more selective sensitivity than reference sarcomas; conditions: exposure time: 72 h; concentration range: 10-10000 nM
The threshold is inclusive: differential drug sensitivity score of exactly -3 counts as fulfilled; values below receive not fulfilled.

These recorded examples may help you get a feel for the data.
# Smiles input, Class label
records = [
    ("Cn1ncc(Cl)c1-c1cc(C(=O)N[C@H](CN)Cc2cccc(F)c2)sc1Cl", "not fulfilled"),
    ("NC1(c2ccc(-c3nc4ccn5c(=O)[nH]nc5c4cc3-c3ccccc3)cc2)CCC1", "fulfilled"),
    ("CN[C@@H](C)C(=O)N[C@H](C(=O)N1CCC[C@H]1c1nc(C(=O)c2ccc(F)cc2)cs1)C1CCCCC1", "fulfilled"),
    ("O=C(O)CNC(=O)c1c(O)c2ccccc2n(Cc2ccccc2)c1=O", "fulfilled"),
]

(Q) Decide: is the reported value of differential drug sensitivity score for C=CC(=O)N1CCN(CCCn2c(=O)c(-c3c(Cl)c(OC)cc(OC)c3Cl)cc3cnc(NC)nc32)CC1 equal to or greater than -3?
(A) not fulfilled

(Q) Decide: is the reported value of differential drug sensitivity score for COc1cc2nccc(Oc3ccc(NC(=O)NC4CC4)c(Cl)c3)c2cc1C(N)=O equal to or greater than -3?
(A) fulfilled

(Q) Decide: is the reported value of differential drug sensitivity score for O=NN(CCCl)C(=O)NCCCl equal to or greater than -3?
(A) fulfilled

* * *

test system: CDS-ZH002 direct; assay: differential drug sensitivity score (dDSS) relative to sarcoma reference cohort mean DSS (DSS units (0-100 scale difference)); higher = more selective sensitivity than reference sarcomas; settings: exposure time: 72 h; concentration range: 10-10000 nM
Parameter differential drug sensitivity score: see the listing below.

Guide cases for differential drug sensitivity score, answers given:
# Compound, differential drug sensitivity score
records = [
    ("CN(C)C(=O)c1cc2cnc(Nc3ccc(N4CCNCC4)cn3)nc2n1C1CCCC1", -2),
    ("Cc1sc2c(c1C)C(c1ccc(Cl)cc1)=N[C@@H](CC(=O)Nc1ccc(O)cc1)c1nnc(C)n1-2", 1.5),
    ("C[C@H]1CNC(=O)c2cnn3ccc(nc23)N[C@H](C)c2cc(F)ccc2O1", 0.2),
]

get_value(item= CC1(C)CCC(c2ccc(Cl)cc2)=C(CN2CCN(c3ccc(C(=O)NS(=O)(=O)c4ccc(N[C@H](CCN5CCOCC5)CSc5ccccc5)c(S(=O)(=O)C(F)(F)F)c4)cc3)CC2)C1 , readout=differential drug sensitivity score) returns -5.8

get_value(item= Cc1ccc(NC(=O)c2ccc(CN3CCN(C)CC3)cc2)cc1Nc1nccc(-c2cccnc2)n1 , readout=differential drug sensitivity score) returns -1.3

get_value(item= S=P(N1CC1)(N1CC1)N1CC1 , readout=differential drug sensitivity score) returns -4.2

get_value(item= CCN(c1cc(C#CCN2CCOCC2)cc(C(=O)NCc2c(C)cc(C)[nH]c2=O)c1C)[C@H]1CC[C@H](N(C)CCOC)CC1 , readout=differential drug sensitivity score) returns -1.2

get_value(item= CN1CCC(CNc2ccc3ncc(-c4cccc(OC(F)(F)F)c4)n3n2)CC1 , readout=differential drug sensitivity score) returns -0.4

get_value(item= NC(=O)Nc1cc(-c2cccc(F)c2)sc1C(=O)N[C@H]1CCCNC1 , readout=differential drug sensitivity score) returns -1

get_value(item= Cn1cnc2c(F)c(Nc3ccc(Br)cc3Cl)c(C(=O)NOCCO)cc21 , readout=differential drug sensitivity score) returns -2

get_value(item= CCNC(=O)C[C@@H]1N=C(c2ccc(Cl)cc2)c2cc(OC)ccc2-n2c(C)nnc21 , readout=differential drug sensitivity score) returns -3.9

get_value(item= Fc1cc(-c2cccc3ncc(-c4cnn(C5CCNCC5)c4)nc23)cc(F)c1CN1CCOCC1 , readout=differential drug sensitivity score) returns 0.1

get_value(item= Cn1cc(-c2cnn3c(N)c(Br)c([C@@H]4CCCNC4)nc23)cn1 , readout=differential drug sensitivity score) returns 1.1

get_value(item= Cc1cnc(NC(=O)Nc2cc(Br)c(C)cc2OC[C@@H]2CNCCO2)cn1 , readout=differential drug sensitivity score) returns 2.4

get_value(item= C[C@]1(O)C[C@@H](c2nc(-c3ccc4ccc(-c5ccccc5)nc4c3)c3c(N)nccn32)C1 , readout=differential drug sensitivity score) returns -5.9

get_value(item= Cc1nn(C)c(COc2ccc(N3CCN(S(=O)(=O)N(C)C)CC3)cc2)c1-c1cccc2c(CCCOc3cccc4ccccc34)c(C(=O)O)n(CCN3CCOCC3)c12 , readout=differential drug sensitivity score) returns -0.8

get_value(item= CNC(=O)Nc1ccc2c(c1)CC[C@@]21OC(=O)N(CC(=O)N(Cc2ccc(F)cc2)[C@@H](C)C(F)(F)F)C1=O , readout=differential drug sensitivity score) returns 6.8

get_value(item= NC(=O)/C(=C/n1cnc(-c2cc(C(F)(F)F)cc(C(F)(F)F)c2)n1)c1cncnc1 [Eltanexor] , readout=differential drug sensitivity score) returns -5.9

get_value(item= COc1cc(OC)c2c(=O)[nH]c(-c3cc(C)c(OCCO)c(C)c3)nc2c1 , readout=differential drug sensitivity score) returns -0.7

get_value(item= CCc1c2c(nc3ccc(O)cc13)-c1cc3c(c(=O)n1C2)COC(=O)[C@]3(O)CC , readout=differential drug sensitivity score) returns -0.9

get_value(item= CCn1c(-c2nonc2N)nc2c(C#CC(C)(C)O)ncc(OC[C@H]3CCCNC3)c21 , readout=differential drug sensitivity score) returns -3.1
